- target: UniProt O14842
- measurement_notes: Ca2+ mobilisation (Fura2) in Flp-In T-REx 293 cells expressing Nluc-FFA1, FFA1-Nluc or untagged FFA1
- Type: cell-based
- Parameters: expressed in transfected cells
- run_conditions: Ca2+ data, mean±SEM; NR = No response
endpoint_label: pEC50
Please state the value as a number alone, without comment.

Quick check: pEC50 of COc1ccc(CCCC(C)(C)C)c(N2CCC(COc3cccc(C(CC(=O)O)C4CC4)c3)CC2)c1.O=C(O)C(F)(F)F (stereo not drawn) [T360] ?
7.48

Find the recorded pEC50 belonging to COc1ccc(C(=O)N(CCNC(=O)OC(C)(C)C)c2ccccc2)c(N2CCC(COc3cccc(C(CC(=O)O)C4CC4)c3)CC2)c1.Cl (stereo not drawn) [TUG-2455] and report it.
6.63

Please look up its pEC50: COc1ccc(C(=O)N2CCN(CCNC(=O)OC(C)(C)C)CC2)c(N2CCC(COc3cccc(C(CC(=O)O)C4CC4)c3)CC2)c1.Cl (stereo not drawn) [TUG-2458]
5.38

Look up pEC50: COc1ccc(C(=O)N2CCC(CCNC(=O)OC(C)(C)C)CC2)c(N2CCC(COc3cccc(C(CC(=O)O)C4CC4)c3)CC2)c1.O=C(O)C(F)(F)F (stereo not drawn) [TUG-2451]
6.20

# pEC50 lookup, item COc1ccc(C(=O)NCC(C)(C)CNc2ccc([N+](=O)[O-])c3nonc23)c(N2CCC(COc3cccc(C(CC(=O)O)C4CC4)c3)CC2)c1.O=C(O)C(F)(F)F (stereo not drawn) [TUG-2489]
5.29

// returns reported pEC50 for input COc1ccc(C(=O)N(CC(C)(C)CNc2ccc([N+](=O)[O-])c3nonc23)c2ccccc2)c(N2CCC(COc3cccc(C(CC(=O)O)C4CC4)c3)CC2)c1.O=C(O)C(F)(F)F (stereo not drawn) [TUG-2490]
5.95

###

Field: EMax (% TUG-905) arrestin-3 recruitment. Provide a value for each of the compounds that follow.
- target: FFA1 (Homo sapiens)
- Sequence (O14842 whole entry): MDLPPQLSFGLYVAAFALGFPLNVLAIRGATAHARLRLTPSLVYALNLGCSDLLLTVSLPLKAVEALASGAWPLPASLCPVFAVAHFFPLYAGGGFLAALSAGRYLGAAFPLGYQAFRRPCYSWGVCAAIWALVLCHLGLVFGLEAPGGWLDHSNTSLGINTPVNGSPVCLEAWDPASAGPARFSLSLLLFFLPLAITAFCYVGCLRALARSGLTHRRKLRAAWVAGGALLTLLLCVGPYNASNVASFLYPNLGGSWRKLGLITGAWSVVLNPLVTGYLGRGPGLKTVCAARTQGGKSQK
- measurement_notes: NanoBiT arrestin-3 recruitment in HEK293T cells
- Assay type: cell-based
- Parameters: expressed in transfected cells; host or cells: HEK293T, transient
- run_conditions: percentage of the response to 10 μM TUG-905; ± SEM
Return type: number; implicit unit %.

Could you tell me which EMax (% TUG-905) arrestin-3 recruitment is on file for Cc1cc(OCCCNC(=O)CCCN2\C(=C/C=C/C=C/C3=[N+](C)c4ccc(S(=O)(=O)[O-])cc4C3(C)C)C(C)(C)c3ccccc32)ccc1-c1cccc(COc2ccc(CCC(=O)O)c(F)c2)c1 [TUG-2591] ?
91

Which measured EMax (% TUG-905) arrestin-3 recruitment value corresponds to COc1ccc(CCCC(C)(C)C)c(N2CCC(COc3cccc(C(CC(=O)O)C4CC4)c3)CC2)c1.O=C(O)C(F)(F)F (stereo not shown) [T360] ?
66

If you can, please state the reported EMax (% TUG-905) arrestin-3 recruitment value of COc1ccc(C(=O)N(CC(C)(C)C)c2cccc(C)n2)c(N2CCC(COc3cccc(C(CC(=O)O)C4CC4)c3)CC2)c1.O=C(O)C(F)(F)F (stereo not shown) [Cpd 6h, reference compound] .
54

Need EMax (% TUG-905) arrestin-3 recruitment of COc1ccc(C(=O)N(CC(C)(C)CNc2ccc([N+](=O)[O-])c3nonc23)c2cccc(C)n2)c(N2CCC(COc3cccc(C(CC(=O)O)C4CC4)c3)CC2)c1.O=C(O)C(F)(F)F (stereo not shown) [TUG-2597] , thanks.
60
